# Tested on: Dd2
# protocol.summary: qHTS profiling for inhibitors of Plasmodium falciparum proliferation (AID 504749); note: nearly all actives have a fitted effect of over 60% in size
# measurement.conditions: P. falciparum in erythrocytes, SYBR Green DNA, 72 h; series mostly up to 28.7 µM
# Protocol: NIH National Institute of Allergy and Infectious Diseases [NIAID] NIH Chemical Genomics Center [NCGC] […] Because mature erythrocytes lack DNA, only Plasmodium-derived DNA is detected. NCGC Assay Protocol Summary: The SYBR Green viability assay was adapted from a method described previously (Plouffe et al., 2008). […] The following morning, fluorescence intensity at 485(14) nm excitation and 535(25) nm emission wavelengths was measured on an EnVision (Perkin Elmer) plate reader. […]
Inconclusive results are not listed. The source made the active and inactive calls. Calls come from the whole dose curve; as a rule, active = well fitted inhibition curve with a large enough effect; inconclusive = small, poorly fitted or top-dose-only effect; inactive = flat fitted curve, though single readings scatter.
recorded.metric: outcome

Consider the worked cases shown below.
- molecule: "Cc1cc(-c2ccc(N=Nc3c(S(=O)(=O)O)cc4cc(S(=O)(=O)O)cc(N)c4c3O)c(C)c2)ccc1N=Nc1c(S(=O)(=O)O)cc2cc(S(=O)(=O)O)cc(N)c2c1O"
  outcome: "inactive"
- molecule: "Cc1cccc(C)c1NC(=O)C1CCCCN1C (stereo unspecified)"
  outcome: "inactive"
- molecule: "CN1C(=O)OC(C)(C)C1=O"
  outcome: "inactive"
- molecule: "CCSc1ccc2c(c1)N(CCCN1CCN(C)CC1)c1ccccc1S2"
  outcome: "inactive"
- molecule: "COc1ccc(/C=N/NC(=O)c2ccncc2)c(C(=O)O)c1OC"
  outcome: "inactive"

Now, please, on to the next molecule.
Item `Cc1ccc(S(=O)(=O)O)cc1C` ; assay system Dd2; outcome reported as inactive

Just for reference, PubChem BioAssay (NCATS) is where these values come from.
